Assay: soluble on expression in E. coli; label from the status in PepcDB or PDB records

[
  {
    "Sequence Record": "MGSDKIHHHHHHMKKLLRNLFGSGREEEKRSASDAMSGREQIVTNSEKSNLSTDPDHVNRQADTLKFDAIRAMNMGELVFATEALRKAMELRPEFETRYYLTEALLRRHLTEEALAQMNLLLEEVPMHTATLLNRAKLRLEQNDPSRALEDCGTGIESTSELEEQALFLYYGASAMKDMKNLKDALCLLKQAIEKNDAFIPARLLRARILIDLERYEEATQDLDWVAASDPEEEQVPMLRARLFMLEGKQQNAIQAYEELLSLDPFNEEGHCGIATLMIKEGRSAEAETFLREAIEEMPVQRNLILMLVEILENKGQTQEAAEWRAKLPEAEVESEAVNFNDLYKGNLY",
    "soluble on expression in E. coli": "not soluble"
  },
  {
    "Sequence Record": "MSLFTGYGNCYRLDALELAAEHGHTMQHWTFKTIEHFRSILANPEFPCLFGRKAVNGETCHILFARAEQLADDIAQGLANYVRTVAPIAPKQRIGSPLVVFLETAAGSSLAEQQALAWKVLRGVHARDPHPWPQGIPTDPDDTGWSFCYAGMPLFINMNFPGHQQMKSRNLGQHITFVINPRENFDEVANANTESGKRIRERIRERVHHYNDGVVPDTLGFFGDTDNYEWKQYQLQEAGSLNPSRCPFHAHAAHQPTPDILIENEGHHHHHH",
    "soluble on expression in E. coli": "not soluble"
  }
]

====

Assay: soluble on expression in E. coli; label from the status in PepcDB or PDB records
Assay Endpoint: soluble on expression in E. coli

[
  {
    "Sequence Record": "MGSDKIHHHHHHMNIFDILRDYLLVQVDKYNLNMDMISIVSKSLSSKEAIGNTKRKDFPIIVGKEIMLEADFKGAKGQAFTSTPSTFEGSLKDILSLDLHDNPHDRSLFIASLNAVMKYLGKTDRTIHCKNNEPEVCAKKFPEFIKMEFGNPKVAIIGYQPAIIDNIKDFFETRVLDLNPEFVDTIQYNVKIEDGIRDYEDVISWADLVICTGSTLCNNSIINFLSLNKPVYYYGTTIAGASNILGLKRLCFCSK",
    "soluble on expression in E. coli": "not soluble"
  },
  {
    "Sequence Record": "MATFSISAMAAQCGVTTANIRSWERYGLLQPTKDEAGNRFYCIEDAIRIQHIIDALSKGFSLKEIKPALYGEETHCRSGWLFYQEEILAQCRKFEPAKLRKLLWRYGREIPPCIVIESILRPLRLWLSAGDDDARRFEKALLDTAIIEYATFQLSSVRKAPAGTMLIAAFSLNDPIELWLETIKYCSEGMRVEVIPWQAPMPDLLSTSFEHIVLWHDETLTPAQENLIQALKESGKFSLHVKNGSGLTLLPAVYRQHEMPESMQHVAPQIHANGYEKSGTAR",
    "soluble on expression in E. coli": "not soluble"
  },
  {
    "Sequence Record": "MAHHHHHHMRNMNDKNNVHNNYYYLKLENVNNGWRNKELKNDITNENIYQFIGKKKKNYSSSEMSKNSYSTCNTNNNIYINYNNNNNMYNNYNNNIYKNLNNRNINYKGYKFKQNYHTNAYVNISKNRNYYYPSESKKLTNEYNKYDFDNLEKRECKIINDESYKIEETTDMENDMLYIHNDSLPSHQPTINNNTQELYHINNYNNNIYFYEPCEKDNYLDSSIKDIYFDIYSNDTSENIKNETNDIINVDQKGNKYEENNINISNNTHEYKTFVNDDKQLLLDHIKRLEYQNNIFLNNMLNMYYVCIDYIKLQDDKIKEHEQVINSQKEFISNLKKQLSSNDNTNVAYNININHINKYKHVTK",
    "soluble on expression in E. coli": "not soluble"
  },
  {
    "Sequence Record": "MIRQTPLEKRYDKLGPHIVTALKKRYFDAYYCKTRNEALQQILDLIPQNHVVSWGGSETLKEMGVQTAVREKGFKVIDRDLAKTPEERTEIMRQALLCDTFLMSSNAISEDGQLFNIDGNGNRVAAMIFGPKNVIVVAGMNKIVKNIDDAIQRTRTVASPAVVQRFQDVNTPCYINGSCIDCTSPESICAYMVTTRISRPAKKIKVILVGENLGLLEHHHHHH",
    "soluble on expression in E. coli": "soluble"
  },
  {
    "Sequence Record": "MKPKPSQFKNLERMLGLKTEQLDAVKVTIELKDKILIIENPTVIKMIAQGQEIYSVIGEAKEAQKEEPKVEIKDEDVKFVMEQTGKGEQEVKEALQKANGDIAKAILLLTGQET",
    "soluble on expression in E. coli": "soluble"
  },
  {
    "Sequence Record": "MYSDDLLLEEDSADESSLANAFSRGMQLGSTDASSYSRRFNSNASTSSSNPTTQRRYAPNQAFSQVETGSPPSNDPHARFGQHIPGSQYIPHVSQNSPSRLGQQPPQRYNHGRPNAGRTMDRNHMNAQLPPSNTNSGGQQRSPRSSSYTNGVPWGRRTNNHVPNVPSTSHGRVDYGSIA",
    "soluble on expression in E. coli": "soluble"
  }
]

Suppose we examine the sequence MKEKIPFYNEKEFHDMVKKTKKGTFSGWYIIDKDNNSVEFSGKFNRQFKLNKPVIPVNTEYVTRKEFNEYKNSNDQRLTKIETTLAAQGEQINKLTQTVEKQGEQINQLVQVVLLHGEQINKLTQTVEKQGEQIKELQIEQKAQGETLKLILQTLQKMSDRLDKMEVKMDKMEVKMDKMEVKMDKMEKRIDKLESKLEHHHHHH ; what soluble on expression in E. coli value has been reported?
not soluble

Repeat with MSTSQEISDPAQATSSAQVKWPRYLEATLGFDNHWHPAAFDHELAEGEFVAVTMLGEKVLLTRAKGEVKAIADGCAHRGVPFSKEPLCFKAGTVSCWYHGWTYDLDDGRLVDVLTSPGSPVIGKIGIKVYPVQVAQGVVFVFIGDEEPHALSEDLPPGFLDEDTHLLGIRRTVQSNWRLGVENGFDTTHIFMHRNSPWVSGNRLAFPYGFVPADRDAMQVYDENWPKGVLDRLSENYMPVFEATLDGETVLSAELTGEEKKVAAQVSVWLPGVLKVDPFPDPTLIQYEFYVPISETQHEYFQVLQRKVEGPEDVKTFEVEFEERWRDDALHGFNDDDVWAREAQQEFYGERDGWSKEQLFPPDMCIVKWRTLASERGRGVRAARVEMSHHHHHH
soluble

====

Assay: soluble on expression in E. coli; label from the status in PepcDB or PDB records
Assay Endpoint: soluble on expression in E. coli

[
  {
    "Sequence Record": "MSLKKILIIVPDGGMLFESAGIADILMQANRLHPEGAREICYQVKLATTQPHQVIHGQSGLNLLADHRLHEIDPREPLDTIMITGRGQNPQEGMAVVDWLRLAAPHARRIVSICGGAMLLAQTGLLDGRRATTHWKLLETMQAEFPQIRVEGGPLYIQDEHIWTSGGVSSGFDLTLALVEEDYGFSLARDIAQDFVMYLRRPGGQLQFSRYNLQQTATQGPINDLLAWLLENLTADLSVDKLAEKVAMSPRNFTRVFTRETGASPARYVAEARLAAARQRLEQTHETLDRIAEQTGFGSSINLRRLFEKQLNLTPGEYRQRFHCRKMAEGHHHHHH",
    "Result": "soluble"
  },
  {
    "Sequence Record": "MSLKIAAFGEVMLRFTPPEYLMLEQTEQLRMNFVGTGVNLLANLAHFQLETALITKLPANRLGEAGKAALRKLGISDQWVGEKGDHIGSFFAEMGYGIRPTQVTYQNRHQSAFGISEAKDYDFEAFLAEVDMVHICGISLSLTEKTRDAALILAQKAHAYQKKVCFDFNYRPSLNTANSALFMRQQYERILPYCDIVFGSRRDLVELLGFIPREDLEGEAQETELIQRFMSQYNLEWFAGTTRSHSQNQNYLSGYLYTQNEYQQSEKRPLLNLDRIGAGDAYAAGILYGYSQNWSLEKAVTFATVNGVLAHTIQGDIPLTTVKQVNHVLEHPNIDLIREGHHHHHH",
    "Result": "soluble"
  },
  {
    "Sequence Record": "MDVTRQIELAHRYMKDFHKSDYSGHDVAHVERVTSLAQTISKCEQQGEYLIITLSALLHDVIDDKLTNKANALDRLKTFLKNIRVSSDQQQKIIYIIQHLSYRNGQNNHVDLPIEGQIVRDADRLDAIGAIGIARAFQFSGHFNEPMWTESPHSDIPNIETITNLEPSAIRHFYDKLLKLKDLMHTETGRKLARERHAFMEQFLNQFYKEWHILEHHHHHH",
    "Result": "soluble"
  }
]

====

Assay: soluble on expression in E. coli; label from the status in PepcDB or PDB records

[
  {
    "Sequence Record": "MGSDKIHHHHHHMTNLNEKQLITEIVGLARSQGLTVHSENAQLNETGMDFQVVFAKDDTGMPWVLRKPRRSDVVERASAEGITLAFLRANLTADVPDWRIHTPELIAYPMLKGTPAAGIDLEQKQYVWNMDHQPPSDDFVRTLADILAELHGTDQISAGQSGIEVIRPEDFRQMTADSMVDVKNKLGVSTTLWERWQKWVDDDAYWPGFSSLIHGDLHPPHILIDQNGRVTGLLDWTEAKVADPAKDFVLYQTIFGEKETARLLEYYDQAGGRIWAKMQEHISEMQAAYPVEIAKLALQTQQEEHINMALEALGVTSD",
    "soluble on expression in E. coli": "not soluble"
  },
  {
    "Sequence Record": "MGSDKIHHHHHHMRGIVLFPIINCSGAMVEITSTEMTPPVNDSHEFIPMRGIRNRHLQTMLPRLIRRKVKFNAHWQRLELPDGDFVDLAWSEDPQQAKYKPRLVVFHGLEGSLNSPYAHGLIEAAQKRGWLGVVMHFRGCSGEPNRLNRIYHSGETEDGAWFLRWLQREFGAVPTAAVGYSLGGNMLACLLAKEGRDIPIEAAVIVSAPFVLEACSYHMDKGFSRVYQRYLLNLLKANASRKLAAYPGSLPVNLAQLKSMRRIREFDDLITAKIHGFADAIDYYRQCSAMPLLNQIAKPTLIIHAKDDPFMDHHVIPKAEDLPPQVEYQLTEHGGHVGFIGGTPLRPEMWLERRIPDWLTTYLEASS",
    "soluble on expression in E. coli": "not soluble"
  }
]

Measured values drawn from the DeepSol protein solubility set for this set.
